System: SF-539 CNS
protocol-summary: NCI-60 one-dose screen, 48 h
stated-conditions: 10 µM
The panel holds about 83,000 compounds, 20% with a hit somewhere; the sample as a whole holds those more often. Active and inactive are the calls of the source. How the source made its calls: active means growth percent below 10; inactive means the rest.
// one of YES = active, NO = inactive, no free text

Worked examples, 4 compounds total:
- compound: "O=[N+]([O-])c1cc(S(=O)(=O)Nc2ccccc2)ccc1Cl"
  group: "NO"
- compound: "S=C1SCN(CCc2ccccc2)CN1CCc1ccccc1"
  group: "NO"
- compound: "N#C/C(=C/N1C(=O)/C(=C/c2ccc([N+](=O)[O-])cc2)SC1=S)c1nc2ccccc2s1"
  group: "NO"
- compound: "O=C1c2ccccc2CCC1(Br)Br"
  group: "NO"

Task: // param item: "CN(CC(=O)O)c1ccc(/C=C/c2ccnc3ccccc23)cc1" ; yields the recorded call
Output: NO

Task: Entry "Cn1ncc2cc3c(Nc4ccc(Cl)cc4)cccc3nc21" : call = ?
Output: NO

Task: What did this assay record as the result for "CCOC(=O)[C@]1(Br)CC[C@@]1(Br)C(=O)OCC" ?
Output: NO

Task: # lookup: test call for "O=S(=O)(c1cc(Cl)ccc1O)c1cc(Cl)ccc1O"
Output: NO

These measurements were taken from PubChem BioAssay (NCI).
